B1: library; numbered along this chain (parent)
chain: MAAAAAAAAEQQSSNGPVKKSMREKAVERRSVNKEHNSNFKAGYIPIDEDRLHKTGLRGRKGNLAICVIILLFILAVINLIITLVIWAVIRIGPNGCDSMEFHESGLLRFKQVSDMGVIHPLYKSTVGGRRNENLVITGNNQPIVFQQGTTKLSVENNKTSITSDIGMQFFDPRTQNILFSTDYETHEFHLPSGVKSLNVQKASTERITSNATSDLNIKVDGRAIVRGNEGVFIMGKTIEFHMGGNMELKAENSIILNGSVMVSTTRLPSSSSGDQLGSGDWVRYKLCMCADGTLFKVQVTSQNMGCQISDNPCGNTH

Variants of: B1
PROTOCOL_TEXT: SGCB cell-surface expression functional score (HA stain, bin4 vs bin1, normalised to synonymous) (log10 ratio); higher = more cell-surface SGCB (functional)
Please respond with reported SGCB cell-surface expression functional score (log10) for every item in the list.
// return just the number, without any unit appended

Note down SGCB cell-surface expression functional score (log10) recorded for `K202S`
0.02

Read the entry `S154Y` and write its reported SGCB cell-surface expression functional score (log10).
-0.16

For the variant `K34E` , give its reported SGCB cell-surface expression functional score (log10).
0.34

Complete the entry with SGCB cell-surface expression functional score (log10) for `I90A`
0.12

Give me measured SGCB cell-surface expression functional score (log10), please, for this variant: `V283D`
-0.63

Report measured SGCB cell-surface expression functional score (log10); entry is `R58S`
-0.22

// Input: `G293R` . Output its SGCB cell-surface expression functional score (log10) only.
-0.02

Read the entry `Q147W` and write its reported SGCB cell-surface expression functional score (log10).
0.33

Find the measured SGCB cell-surface expression functional score (log10) of `D172I` and report it.
-1.04

Please indicate SGCB cell-surface expression functional score (log10) recorded for `Q299R`
0

Supply recorded SGCB cell-surface expression functional score (log10) for `D281W` here.
-1.51
